# study_system: T1, SX64 chimera (Drosophila melanogaster / Sciara …, UniProt P19339 1-292+=LE+Q86QM9:241-287, internal_change)
# T1 sequence: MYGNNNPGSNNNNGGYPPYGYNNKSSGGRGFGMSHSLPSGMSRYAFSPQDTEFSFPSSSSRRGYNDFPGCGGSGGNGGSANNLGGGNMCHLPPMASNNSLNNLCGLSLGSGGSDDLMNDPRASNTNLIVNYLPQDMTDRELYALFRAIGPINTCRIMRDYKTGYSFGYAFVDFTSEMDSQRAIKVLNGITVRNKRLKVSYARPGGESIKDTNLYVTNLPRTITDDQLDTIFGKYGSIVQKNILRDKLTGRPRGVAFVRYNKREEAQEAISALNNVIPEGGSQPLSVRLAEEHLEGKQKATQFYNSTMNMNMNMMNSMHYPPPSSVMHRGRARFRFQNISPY
# test_protocol: EMSA; apparent Kd, Hill fit; error 95% CI; 20 mM Hepes pH 8.0, 0.1 M KCl, 0.5 mM EDTA, 1 mM DTT, 0.05% NP40, 20% glycerol, 3 µg yeast tRNA; 5 min on ice, then 10 min at room temperature with RNA; 5% native PAGE, 0.25x TBE
# run_conditions: protein: recombinant; tags: GST; label: fluorescein (RNA labelling mix)
result_type: Kd (µM)
Answer with a number only, understood to be in µM.

Qu. Entry under review: ACAUAUUUUUUUUCACAGC (ssRNA) [single poly(U) SXL site] . Reported Kd?
Ans. 180
